Target: T1, rat NMUR1-ATG (rat, UniProt Q9JJI5 1-425)
T1 construct: whole, on cells; Cell line with engineered ATG start codon in place of the genomic TTG; also called rat R1-ATG
T1 sequence (looked up): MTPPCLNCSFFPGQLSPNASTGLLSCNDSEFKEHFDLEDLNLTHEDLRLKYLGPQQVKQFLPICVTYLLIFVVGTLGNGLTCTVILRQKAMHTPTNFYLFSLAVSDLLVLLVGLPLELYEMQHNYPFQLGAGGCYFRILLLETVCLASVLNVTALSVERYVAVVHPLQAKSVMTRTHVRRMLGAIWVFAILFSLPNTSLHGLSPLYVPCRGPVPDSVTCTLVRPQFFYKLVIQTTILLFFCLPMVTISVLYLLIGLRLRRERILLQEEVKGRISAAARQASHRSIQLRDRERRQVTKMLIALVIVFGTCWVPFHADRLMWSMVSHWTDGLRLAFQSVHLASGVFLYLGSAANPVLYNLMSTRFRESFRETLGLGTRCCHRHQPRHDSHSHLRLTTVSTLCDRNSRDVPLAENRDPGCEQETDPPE
Test: 125I-hNMU-25 displacement, cell membranes
No end group written: not given here.
REPORTED_METRIC: IC50 (nM)
Report only the number, with the unit nM understood.

Ask | Bench note: what IC50 did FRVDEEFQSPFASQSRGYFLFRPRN-NH2 (also called hNMU-25; native hNMU) [human NMU-25] show?
Reply | 1.2
